Test system: Saccharomyces cerevisiae;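 note: PSI per variant is the weighted mean of its sequencing read distribution over the sorted stability bins, counting only variants with over 10 reads summed across bins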
Assay: protein stability index of tFT-peptide fusion in deletion strain of DOA10 (PSI (0-1 scale)); higher = more stable (slower turnover)
Would you kindly list protein stability index for each of these sequences?
One number for each entry.

Monomer Sequence | Test Value
GLYMCGVGCWFR | 0.682
KLYMCSVGCWFR | 0.654
CLVSLPILLFFH | 0.474

Hi there! I need protein stability index for each item below, if you can.
1. RSLRVLLPLYGR
2. RVTRLDAICFRI
3. RSLRVLLYLYFR
4. RDLRVLLPLYFR
5. GLYMCSVGCWFD
6. ALVSLPILLFFR
7. KVTRLDAIYFRI

1: 0.642; 2: 0.713; 3: 0.479; 4: 0.675; 5: 0.518; 6: 0.653; 7: 0.67
